# TARGET ENTITY: Neurotensin receptor type 1 (Homo sapiens)
# ASSAY: NTR1 agonists in analog series, SAR follow-up, imaging, image-based, set 3 (AID 602356)
# COND: NTR1 image-based agonist assay, cellular imaging
Calls of active or inactive are those of the source. The rule behind the calls is not given here.
READOUT LABEL: EC50

See these solved cases before continuing.
smiles=COc1ccc(N2CCN(c3nc(C4CCC4)nc4cc(OC)c(OC)cc34)CC2)cc1 readout_label=EC50 observed=inactive
smiles=COc1cc2c3nnc(-c4ccc(F)cc4)c-3cn(Cc3ccccc3F)c2cc1OC readout_label=EC50 observed="2.52 µM"
smiles=COc1cc2nc(CC3CC3)nc(N3CCN(c4ccccc4OC)CC3)c2cc1OC readout_label=EC50 observed="14.2 µM"
smiles=CCOc1cc2nc(-c3ccc(OC)c(OC)c3)nc(N3CCN(c4ccccc4F)CC3)c2cc1OC readout_label=EC50 observed="> 80 µM (inactive)"

Quick one: give me EC50 for each item below, same order please.
1. COc1ccc(N2CCN(c3nc(C4CCC4)nc4cc(OC)c(OC)cc34)CC2)c(OC)c1
2. COc1ccc(-c2nnc3c4ccccc4n(Cc4ccc(OC(F)(F)F)cc4)cc2-3)cc1
3. CCc1ccc(-c2nnc3c4cc(OC)c(OC)cc4n(Cc4ccc(F)cc4)cc2-3)cc1

1: inactive; 2: inactive; 3: 9.22 µM

Quick one: give me EC50 for each item below, same order please.
1. CC(C)C[C@H](NC(=O)c1cn(-c2ccnc3cc(Cl)ccc23)c(-c2ccccc2)n1)C(=O)O
2. COc1ccccc1-c1cc(C(=O)N[C@@H](CC(C)C)C(=O)OC(C)(C)C)nn1-c1ccnc2cc(Cl)ccc12

["inactive", "5.01 µM"]

---

For each record, write down the corresponding EC50.
# TARGET ENTITY: Neurotensin receptor type 1 (Homo sapiens)
# ASSAY: NTR1 agonists in analog series, SAR follow-up, imaging, image-based, set 3 (AID 602356)
# COND: NTR1 image-based agonist assay, cellular imaging
Activity calls are given as the source filed them. The rule behind the calls is not given here.

smiles=COc1ccc(-c2nnc3c4ccccc4n(Cc4ccncc4)cc2-3)cc1 target_entity="Neurotensin receptor type 1 (Homo sapiens)" readout_label=EC50 observed="> 80 µM (inactive)"
smiles=COc1ccc(-c2nnc3c4ccccc4n(Cc4ccc(C)cc4)cc2-3)cc1 target_entity="Neurotensin receptor type 1 (Homo sapiens)" readout_label=EC50 observed="> 80 µM (inactive)"

Quick one: give me EC50 for each item below, same order please.
1. COc1cc2c3nnc(-c4ccccc4)c-3cn(Cc3ccc(F)cc3)c2cc1OC
2. CCOc1cc2nc(-c3ccc(OC)c(OC)c3)nc(N3CCN(c4ccccc4)CC3)c2cc1OC
3. COc1ccc(Cn2cc3c(-c4ccc(F)cc4)nnc-3c3cc(OC)c(OC)cc32)cc1
4. CCOc1ccc(-c2nnc3c4cc(OC)c(OC)cc4n(Cc4ccc(F)cc4)cc2-3)cc1
5. COc1cc2c3nnc(-c4ccc(Cl)cc4)c-3cn(Cc3ccc(F)cc3)c2cc1OC
6. COc1cc2c3nnc(-c4ccc(C)c(C)c4)c-3cn(Cc3ccccc3)c2cc1OC

16.6 µM
> 80 µM (inactive)
8.11 µM
8.05 µM
2.95 µM
6.2 µM

Name the recorded EC50 of the item COc1ccc(-c2nnc3c4cc(OC)c(OC)cc4n(Cc4ccc(C)cc4)cc2-3)cc1 in your answer. 5.21 µM
